Each entry below carries its reported growth.
system: LOX IMVI melanoma; experiment: NCI-60 one-dose screen, 48 h (100 = growth as untreated, 0 = no growth, -100 = all killed); conditions: 10 µM unless noted
This is part of a sample that, as a whole, favours compounds with a hit. Of some 83,000 tested, about 20% had one in any assay.
property.measured: growth (%)

compound	property.measured	units.symbol	reported
CC1=C2CC/C(C)=C/CC[C@]3(C)O[C@H]3CC/C(C)=C/[C@H]2OC1	growth	%	101
[N-]=[N+]=NCC1OC(n2cnc3c(NC(=O)Nc4ccccc4)ncnc32)C2OC(=O)CC12 (centres undefined)	growth	%	93.2
Cc1c(C(C)(C)O)cn2ncnc(Oc3ccc(NC(=O)Nc4ccc(Cl)c(C(F)(F)F)c4)c(F)c3)c12	growth	%	59.7
CCOC(=O)c1c(C)nc2c(c1N)C(=O)C(=O)N2Cc1ccc(OC)cc1	growth	%	61.1
O=C(NCCNC(c1ccccc1)C(NCCNC(=O)c1ccccc1)c1ccccc1)c1ccccc1 (centres undefined)	growth	%	75.6
Cc1cccc(NC(=O)N/C(N)=N/c2nc3ccccc3s2)c1	growth	%	34.4
CCOC(=O)CC[C@H](NC(=O)c1ccc(N(C)Cc2cnc3nc(N)nc(N)c3n2)c2ccccc12)C(=O)OCC	growth	%	17.6
COC(=O)[C@]1(C)CCC[C@]2(C)[C@H]3C[C@@H]4[C@H]5[C@@H]6CC/C(=N\OCC/C(N)=N/O)[C@H]5[C@@]3(CC[C@H]21)CC4(C(C)C)O6	growth	%	69
CSc1ccc2c3c(n(CCCn4ccnc4)c(=O)c2c1)-c1ccccc1C3=O	growth	%	1.75

###

system: HCC-2998 colon; experiment: NCI-60 one-dose screen, 48 h; conditions: 10 µM unless noted
This is part of a sample that, as a whole, favours compounds with a hit. Of some 83,000 tested, about 20% had one in any assay. Active and inactive are the calls of the source. Rule for the calls: active = growth percent below 10; inactive = the rest.
Outcomes: active, inactive

compound	group
CCCCC#Cc1c(I)n(C2OC(CO[Si](C)(C)C(C)(C)C)C3OC(C)(C)OC32)c(=O)n(C(=O)c2ccccc2)c1=O (centres undefined)	active
O=C(/C=C/c1ccccc1)N(C1CCCCC1)C1CCCCC1	inactive
CCCCCc1ccc(S(=O)(=O)Nc2cc(-c3csc(NC(C)=O)n3)ccc2N2CCN(C)CC2)cc1	active
CSc1ccc2c3c(n(CCCn4ccnc4)c(=O)c2c1)-c1ccccc1C3=O	inactive
ClC(Cl)c1nc(-c2ccccc2)n2nc(-c3ccccc3)cc2n1	active
C=C(C)[C@@H]1CC[C@]2(C(=O)N3CCN(C)CC3)CC[C@]3(C)[C@H](CC[C@@H]4[C@@](C)(CCC(=O)O)[C@H](C(=C)C)CC[C@]43C)[C@@H]12	inactive
CNCCCNc1nc2ccccc2c2c(=O)c3cc(Cl)ccc3sc12	active
N#Cc1c(-c2cccc(Cl)c2)cc(-c2cccnc2)[nH]c1=O	inactive
C=C(C)[C@@H]1CC[C@]2(COC3CCCCO3)CC[C@]3(C)[C@H](CC[C@@H]4[C@@]5(C)C=C(C=O)C(=O)C(C)(C)[C@@H]5CC[C@]43C)[C@@H]12 (some centres undefined)	active

###

test system: M14 melanoma; assay: NCI-60 one-dose screen, 48 h (100 = growth as untreated, 0 = no growth, -100 = all killed); conditions: 10 µM unless noted
Compounds without any hit were thinned out: in the full panel of roughly 83,000, 20% have a hit.
property.measured: growth (%)

compound	test.target	property.measured	reported
COCC(=O)Oc1cc(-c2ccc(C)cc2C)c(OC(=O)COC)c(-c2ccc(C)cc2C)c1	M14 melanoma	growth	65.1
CCn1cc(C(=O)N/N=C/c2ccccc2)c(=O)c2cc(F)c(N3CCNC(C)C3)c(F)c21 (stereo not given)	M14 melanoma	growth	-49.7
COc1ccc(C=Nc2c(C(=O)Nc3cccc(Cl)c3C)sc3nc(C)c(C(=O)/C=C/c4ccc(OC)cc4)cc23)cc1	M14 melanoma	growth	-3.16
Cc1ccc(S(=O)(=O)N2CCCN(c3nc(-c4ccccc4)nc4nc(-c5ccccc5)oc34)CC2)cc1	M14 melanoma	growth	110
O=C(Nc1ccccc1O)c1ccc(CNc2ccnc(C(F)(F)F)c2)cc1	M14 melanoma	growth	34

###

Test system: SNB-19 CNS
Experiment: NCI-60 one-dose screen, 48 h (100 = growth as untreated, 0 = no growth, -100 = all killed)
Conditions: 10 µM unless noted
Experimental: Growth inhibition of the SNB-19 human tumor cell line is measured as a screen for anti-cancer activity. Cells are grown in 96 well plates and exposed to the test compound for 48 hours. Compounds are tested at a single concentration, which is 10^-5 M for most compounds. The reported endpoint is percent growth (GI% or GIPRCNT), where numbers from 0 - 100% represent growth inhibition, and numbers from -100% - 0 represent cell death. For example, a value of 40 represents 60% growth inhibition. […]
The panel holds about 83,000 compounds, 20% with a hit somewhere; the sample as a whole holds those more often.
Each entry below carries its reported growth.
property.measured: growth (%)

molecule	test.target	units.symbol	reported
COc1cc(-c2nccc3[nH]c(-c4cccc5[nH]ccc45)nc23)cc(OC)c1OC	SNB-19 CNS	%	49.1
O=C(OCc1ccc2c(Cl)cc(Cl)c(O)c2n1)N1CCN(C(=O)c2cc3ccccc3[nH]2)CC1	SNB-19 CNS	%	24.5
COc1ccc(OC)c(Nc2nnc(-c3cc(OC)c(OC)c(OC)c3)o2)c1	SNB-19 CNS	%	96.7
O=C(Nc1ncc(Cc2ccccc2)s1)c1sc2ccccc2c1Cl	SNB-19 CNS	%	52.6
CCCCn1c(NC(C)=O)c(S(=O)(=O)c2ccccc2)c2nc3ccccc3nc21	SNB-19 CNS	%	98.7
CN(C)c1ccc(/C=C2\C=C(c3nc4ccccc4s3)OC2=O)cc1	SNB-19 CNS	%	95.3
COC1C(O)CC(OC2CC(OC3CC(O[C@@H]4C(=O)c5c(cc6cc(OC7CC(OC8CC(O)C(O)C(C)O8)C(O)C(C)O7)c(C)c(O)c6c5O)CC4[C@H](OC)C(=O)O)OC(C)C3O)OC(C)C2O)OC1C (stereo not given in full)	SNB-19 CNS	%	21.4
CC(=O)Nc1sc2c(c1-c1nc3ccccc3s1)CNC2	SNB-19 CNS	%	26.8
COc1cc2c(c(OC)c1OC)CCC(c1cccc(C(=O)Nc3ccc(Br)cc3)c1)O2 (stereo not given)	SNB-19 CNS	%	65.8
CC1(C)N=C(N)N=C(N)N1c1ccc(S(=O)(=O)Nc2nccs2)cc1	SNB-19 CNS	%	98.2
O=c1oc2c(cc1-c1ccccc1)c(=O)[nH]c1ccccc12	SNB-19 CNS	%	97.4
O=c1cc(CP(=O)(O)O)c2cc(O)c(-c3ccccc3)cc2o1	SNB-19 CNS	%	96.8
COc1ccc(-c2nc(SCC(=O)Nc3nc4ccc(C)cc4s3)[nH]c(=O)c2C#N)cc1OC	SNB-19 CNS	%	101
c1cc(OCCCCCOc2cccc(-c3nc4ccccc4[nH]3)c2)cc(-c2nc3ccccc3[nH]2)c1	SNB-19 CNS	%	22.3
Cc1ccc(O)c(NC(=O)c2cccc(Nc3ccnc(C(F)(F)F)c3)c2)c1	SNB-19 CNS	%	90.5
COCC(=O)Oc1cc(-c2ccc(C)cc2C)c(OC(=O)COC)c(-c2ccc(C)cc2C)c1	SNB-19 CNS	%	60.9
CCN(CC)CCCC(Cc1ccccc1)Nc1c2ccc(Cl)cc2nc2ccc(OC)cc12 (stereo not given)	SNB-19 CNS	%	34.7
CN(C)Cc1cc(C(C)(C)C)cc(Br)c1O	SNB-19 CNS	%	113
COc1cc(-c2cc(-c3ccc(Nc4nc(Nc5ccc(Cl)cc5)nc(Nc5ccc(Cl)cc5)n4)cc3)no2)cc(OC)c1OC	SNB-19 CNS	%	81.6
CC(C)c1ccc2c(c1)CC[C@H]1[C@](C)(C(=O)OCC#CCN3CCCC3)CCC[C@]21C	SNB-19 CNS	%	86.8

###

test system: CAKI-1 renal; assay: NCI-60 one-dose screen, 48 h; details: 10 µM unless noted
About 83,000 compounds went through this panel and 20% of them were active in at least one assay; those are over-represented in the sample as a whole. Activity calls are given as the source filed them. How the source made its calls: active means growth percent below 10; inactive means the rest.
Outcomes: T = active, F = inactive

compound	test.target	group
COC(=O)c1c2c(c(C)[n+]([O-])c1C)C(=O)C(NCc1ccccc1)=CC2=O	CAKI-1 renal	F
O=c1cc(CNc2cc(F)cc(F)c2)c2ccc(I)cc2[nH]1	CAKI-1 renal	F
COc1cc(Cc2cc(-c3ccccc3)nn(Cc3ccccc3)c2=O)cc(OC)c1OC	CAKI-1 renal	F
Cc1ccc(S(=O)(=O)c2nc(-c3ccccc3)oc2SCC(N)=O)cc1	CAKI-1 renal	F
Cc1ccc(C2CC(c3cccc(Nc4ccncc4)c3)=Nc3c(N)nc(N)nc3N2)cc1 (stereo not drawn)	CAKI-1 renal	F
CCOc1ccc(/C=C/C(=O)c2cccc(OCCCOc3cccc(C(=O)/C=C/c4ccc(OCC)cc4)c3)c2)cc1	CAKI-1 renal	F
Cc1cc(O)cc(-c2nn(C)cc2-c2cc(N3CCOCC3)nc(-c3cccnc3)n2)c1	CAKI-1 renal	F
COc1ccc(/C=C/C(c2cc(OC)c(OC)c(OC)c2)n2cncn2)cc1O (stereo not drawn)	CAKI-1 renal	F
Nc1ccc(Br)cc1C(F)(F)F	CAKI-1 renal	F
O=C1/C(=C/c2ccccn2)SC(=S)N1N1CCOCC1	CAKI-1 renal	F
Cc1ccc2cnc(N)c(C#Cc3cc(C(=O)Nc4ccc(CN5CCN(C)CC5)c(C(F)(F)F)c4)cnc3C)c2c1	CAKI-1 renal	T
O=C(CN1C(=O)S/C(=C\C(Cl)=C\c2ccccc2)C1=O)NC1CCS(=O)(=O)C1 (stereo not drawn)	CAKI-1 renal	F
Cn1cc(-c2csc(-c3cn(CCCN4CCOCC4)c4ccc(F)cc34)n2)c2cccnc21	CAKI-1 renal	F
